B1: glmS ribozyme (parent)
chain: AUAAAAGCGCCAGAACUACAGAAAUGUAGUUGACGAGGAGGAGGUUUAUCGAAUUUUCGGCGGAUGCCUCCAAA

Variants of: B1
Assay: self-cleavage kobs at 40 uM GlcN6P; higher = faster cleavage; RNA array
Conditions: with glucosamine-6-phosphate
This sample holds only a part of the variants without activity.
Parameter: self-cleavage kobs at 40 uM GlcN6P. Scope: all listed entries.

Request: Any idea what self-cleavage kobs at 40 uM GlcN6P was measured for G43A G59C ?
Response: < 1e-05 s⁻¹

Request: Thanks! And A39G C68U ?
Response: 0.000529 s⁻¹

Request: Another variant to check: G43C A52C U54G
Response: < 1e-05 s⁻¹

Request: What do you have for C10G G32U A36C G40U G63U ?
Response: < 1e-05 s⁻¹

Request: Then this variant: G35A G41A
Response: < 1e-05 s⁻¹

Request: Note, next up: U49C G59C
Response: < 1e-05 s⁻¹

Request: Field entry: G29A A39C
Response: 2.46e-05 s⁻¹

Request: Also G32U C34G C68G , if possible.
Response: 4.91e-05 s⁻¹

Request: Next entry: C16G U57C
Response: < 1e-05 s⁻¹

Request: Next entry: G21U C67G
Response: 9.41e-05 s⁻¹

Further cases:
Request: Fill in the blank: the reported self-cleavage kobs at 40 uM GlcN6P of C16G C34G G60U C61G U65A C67G is ____.
Response: 8.29e-05 s⁻¹

Request: Param item: G29U U30A U31G A53U
Response: < 1e-05 s⁻¹

Request: Next: C10U C50G C70G
Response: 5.33e-05 s⁻¹
